FYI, the data here is from PubChem BioAssay (NCATS).

Assay: Primary qHTS for inhibitors of nuclear receptor binding SET domain protein 2 (NSD2) in an isogenic RCH-ACV NSD2 p.E1099K mutant (9B) (AID 1645876); also: nearly all actives have a fitted effect of over 70% in size
Settings: RCH-ACV (leukaemia line) NSD2 E1099K (9B) viability, CellTiter-Glo, 72 h; series mostly up to 44.9 µM
Results filed as inconclusive are left out. Activity calls are given as the source filed them. Calls follow the shape of the dose curve; as a rule, active = well fitted inhibition curve with a large enough effect; inconclusive = small, poorly fitted or top-dose-only effect; inactive = flat fitted curve, though single readings scatter.
A correct response names exactly one class from label 1 (active), label 0 (inactive)

The examples below pair each entry with its known result.
* O=C(NC1CCN(CCCCC2(C(=O)NCC(F)(F)F)c3ccccc3-c3ccccc32)CC1)c1ccccc1-c1ccc(C(F)(F)F)cc1 | label 1
* CCOC(=O)C1(CCOc2ccccc2)CCN(Cc2ccc(O)c(Cl)c2)CC1 | label 1
* Cc1csc(N(C(=O)CSc2ccc(-c3ccccc3)nn2)C2CC2)n1 | label 0
* C=C(C)[C@@H]1CC[C@]2(C(=O)O)CC[C@]3(C(=O)O)[C@H](CCC4[C@@]5(C)CCC(=O)C(C)(C)C5CC[C@]43C)C12 (stereo not given in full) | label 1
* C=C1C(=O)OC2/C=C(\C)CC/C=C(\C)CC(OC(C)=O)C12 (stereo not given) | label 1

Dear colleague, could you share the recorded outcome for "C=C1C(=O)O[C@@H]2/C=C(\CO)CC/C=C(/C=O)C[C@H](O)[C@@H]12" when you have a moment? label 1

Another molecule to check: "C[C@@H](NC(=O)C(=O)c1c[nH]c2ccc([N+](=O)[O-])cc12)c1ccccc1" label 0

Another molecule to check: CC1(C(=O)Nc2ccc(F)nc2)CCCN1c1nc(Nc2cc(C3CC3)[nH]n2)c2cccn2n1 (stereo not given) label 1

---

Test system: SKOV3
Assay: Primary qHTS to identify gynecologic anti-cancer compounds using libraries of approved drugs and bioactive compounds (AID 1345084); also: nearly all actives have a fitted effect of over 55% in size
Conditions: Gynecologic cancer cell panel viability, ATPlite luminescence, 48 h; series mostly up to 57.5 µM
Records with an inconclusive call do not appear. Calls of active or inactive are those of the source. The call rests on the fitted dose curve; in most records, active means well fitted cell-killing curve with a large enough effect; inconclusive means small, poorly fitted or top-dose-only effect, or effect the other way; inactive means flat fitted curve, though single readings scatter.
A correct response names exactly one class from class 1 (active), class 0 (inactive)

The examples below pair each entry with its known result.
• Cc1nc(NC(=O)N2CCCC2C(N)=O)sc1-c1ccnc(C(C)(C)C(F)(F)F)c1 (centres undefined) = class 1
• O=C(NCc1ccc(OC(F)(F)F)cc1)C1c2c(F)cccc2C(=O)N1CCc1ccccn1 (centres undefined) = class 0

Dear colleague, could you share the recorded outcome for "CCNC1(C(N)=O)CN(c2nc(C)nc3c(-c4ccc(Cl)cc4)c(-c4ccccc4Cl)nn23)C1" when you have a moment? class 0

Another compound to check: CC1OC2OC(=O)C3(C)CC4C5(CO5)C5=CC(=O)OC(C)(C)C5=CC(=O)C4(C)C(C1=O)C23 (centres undefined) class 0

Another compound to check: "CCCSc1nc(N[C@@H]2C[C@H]2c2ccc(F)c(F)c2)c2nnn([C@@H]3C[C@H](OCCO)[C@@H](O)[C@H]3O)c2n1" class 0

Another compound to check: C/C=C/C1=CC2=C(CO1)C(=O)C(C)(OC(=O)c1c(C)cc(O)cc1OC)C(O)C2 (centres undefined) class 0

Another compound to check: "Cc1cc(C)c(-n2cc(C)c3c(Cl)nc(C)nc32)c(C)c1" class 0

Another compound to check: "N#Cc1ccc(COC[C@H]2O[C@@H](n3c(NCc4ccc(Cl)c(Cl)c4)nc4c(N)ncnc43)[C@H](O)[C@@H]2O)cc1" class 0

Another compound to check: "O=C(NCCN1CCOCC1)c1cc2c(Oc3ccc(NC(=O)C4(C(=O)Nc5ccc(F)cc5)CC4)cc3)ccnc2[nH]1" class 0
